Just for reference, patent US20230167070A1 is where these values come from.

Can you tell me pIC50 for the items I'm about to list?
target_desc: human TREX2 (residues M44-A279) (Homo sapiens, UniProt Q9BQ50)
Construct: human TREX2 (residues M44-A279, expressed in E. coli)
Sequence (Q9BQ50 whole entry, the tested form may be a part): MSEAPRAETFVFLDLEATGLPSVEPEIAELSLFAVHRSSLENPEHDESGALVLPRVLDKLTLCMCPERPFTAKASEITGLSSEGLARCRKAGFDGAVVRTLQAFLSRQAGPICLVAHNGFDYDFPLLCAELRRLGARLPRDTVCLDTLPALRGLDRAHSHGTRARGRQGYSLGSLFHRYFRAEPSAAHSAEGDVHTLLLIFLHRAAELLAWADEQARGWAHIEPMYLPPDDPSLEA
test_details: TREX2 Biochemical Assay (fluorescence, dsDNA substrate degradation)
test_settings: 2.5 nM TREX2, 60 nM dsDNA substrate, 25 minutes at room temperature
pIC50: −log10 of the molar value.

Query string: # returns recorded pIC50 (system: human TREX2 (residues M44-A279) (Homo sapiens, UniProt Q9BQ50)) for CN(c1nc(C(=O)Nc2ccc(F)cc2)c(O)c(=O)n1C)[C@H](c1ccccc1)c1ccccc1Cl (stereo in doubt)
Result string: > 6.00

Query string: Ok, now CN(c1nc(C(=O)NCC2CC2)c(O)c(=O)n1C)C(c1ccccc1)c1ccccc1
Result string: 5.00 to 6.00

Query string: Record: CN(c1nc(C(=O)Nc2c(F)cccc2F)c(O)c(=O)n1C)C(c1ccccc1)c1ccccc1
Result string: 4.00 to 5.00

Query string: Same again, this time with CN(c1nc(C(=O)Nc2cccc(F)c2F)c(O)c(=O)n1C)C(c1ccccc1)c1ccccc1
Result string: > 6.00

Query string: What about CN(c1nc(C(=O)Nc2cnnn2C)c(O)c(=O)n1C)C(c1ccccc1)c1ccccc1 ?
Result string: 5.00 to 6.00

Query string: Subsequent entry: CN(c1nc(C(=O)Nc2cc(F)cc(F)c2)c(O)c(=O)n1C)C(c1ccccc1)c1ccccc1
Result string: > 6.00
